Test system: Escherichia coli
Test: Antibacterial activity against multidrug-resistant Escherichia coli 50739822 producing New Delhi metallo-beta-lactamase-1 cultured in MHB medium assessed as reduction in bacterial growth incubated for 24 hrs by microdilution susceptibility test
Format: functional
Details: Escherichia coli, 50739822, 24 h
MEASURED QUANTITY: MIC

Before answering, review these 4 worked examples.
{"columns": ["SAMPLE SMILES", "ASSAYED SYSTEM", "MIC"],
 "data": [
  ["N=C(N)NCCNC(=O)C(CNC(=N)N)(Cc1cc(C(F)(F)F)cc(C(F)(F)F)c1)Cc1cc(C(F)(F)F)cc(C(F)(F)F)c1", "Escherichia coli", "32 µg/mL"],
  ["NCCNCC(CN)(Cc1ccc(F)c2ccccc12)Cc1ccc(F)c2ccccc12", "Escherichia coli", "4 µg/mL"],
  ["NCCNC(=O)C(CN)(Cc1ccccc1C(F)(F)F)Cc1ccccc1C(F)(F)F", "Escherichia coli", "> 32 µg/mL"],
  ["N=C(N)NCCNC(=O)C(CNC(=N)N)(Cc1ccc(F)c2ccccc12)Cc1ccc(F)c2ccccc12", "Escherichia coli", "32 µg/mL"]
]}

Prompt: Any idea what its MIC is? The molecule is `NCCNCC(CN)(Cc1cc(Br)cc(Br)c1)Cc1cc(Br)cc(Br)c1`
Completion: 8 µg/mL

Prompt: Let us now turn to `NCCNC(=O)C(CN)(Cc1ccc(C(F)(F)F)cc1)Cc1ccc(C(F)(F)F)cc1`
Completion: 32 µg/mL

Prompt: Follow-up entry: `N=C(N)NCCNC(=O)C(CNC(=N)N)(Cc1cc(Br)cc(Br)c1)Cc1cc(Br)cc(Br)c1`
Completion: 8 µg/mL

Prompt: Param item: `NCCNC(=O)C(CN)(Cc1cc(C(F)(F)F)cc(C(F)(F)F)c1)Cc1cc(C(F)(F)F)cc(C(F)(F)F)c1`
Completion: 16 µg/mL
